Target entity: Beta-2 adrenergic receptor (Cavia porcellus)
Assay protocol: Agonist activity at adrenergic beta2 receptor in Hartley guinea pig tracheal ring assessed as bronchorelaxation activity against carbachol-induced contraction
Format: functional, tissue-based, Trachea
Reported endpoint: EC50 (nM)

* CC(C)(C)NC[C@@H](O)c1ccc(OB(O)O)c(CO)c1 | 2.1

====

Target entity: Beta-2 adrenergic receptor (Cavia porcellus, UniProt Q8K4Z4)
Sequence (Q8K4Z4 whole entry): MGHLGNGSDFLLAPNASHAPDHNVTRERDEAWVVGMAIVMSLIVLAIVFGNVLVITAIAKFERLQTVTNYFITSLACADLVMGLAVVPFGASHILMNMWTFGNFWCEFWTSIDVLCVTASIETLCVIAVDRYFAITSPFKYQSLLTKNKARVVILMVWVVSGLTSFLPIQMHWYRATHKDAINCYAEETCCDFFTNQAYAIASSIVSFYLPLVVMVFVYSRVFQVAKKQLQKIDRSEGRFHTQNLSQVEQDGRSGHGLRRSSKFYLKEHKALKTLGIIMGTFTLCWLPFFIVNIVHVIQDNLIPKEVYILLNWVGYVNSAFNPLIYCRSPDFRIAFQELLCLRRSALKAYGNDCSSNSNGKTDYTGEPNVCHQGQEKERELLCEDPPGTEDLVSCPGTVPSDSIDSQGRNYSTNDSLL
Assay protocol: Agonist activity at adrenergic beta2 receptor in Hartley guinea pig tracheal ring assessed as bronchorelaxation activity against histamine-induced contraction
Assay type: functional, tissue-based, Trachea
pEC50: −log10 of the molar value.
Reported endpoint: pEC50

• CC(C)(C)NC[C@@H](O)c1ccc(OB(O)O)c(CO)c1 = 10.14
